Test: NCI Yeast Anticancer Drug Screen. Data for the rad50 strain (AID 155)
Details: S. cerevisiae rad50 strain growth inhibition; at 50.0 µM
Compounds without any hit were thinned out: in the full panel of roughly 79,000, 15% have a hit. Activity calls are given as the source filed them. Rule as the data show it: active = growth inhibition above about 70%; inactive = the rest.
Your response should consist of one outcome taken from active, inactive

The following compounds have reported results that may help.
Per the records of this test, what outcome belongs to COc1ccc(C2=Nc3cc(C)c(C)cc3NC(c3ccccc3)C2)cc1 (stereo not drawn) ? inactive

Per the records of this test, what outcome belongs to [O-]/[N+](O)=C\c1ccccn1 ? inactive

Per the records of this test, what outcome belongs to CC(c1ccccc1)[P+](c1ccccc1)(c1ccccc1)c1ccccc1 (stereo not drawn) ? active

Per the records of this test, what outcome belongs to S=C(C(=S)N1CCOCC1)N1CCOCC1 ? inactive

Continuing:
Per the records of this test, what outcome belongs to CCCCCCSC(=Cc1cccc[n+]1C)SCCCCCC ? active

Per the records of this test, what outcome belongs to Cc1ccc(COCO)c(O)c1 ? inactive

Per the records of this test, what outcome belongs to Cc1cc(Cl)c(O)c(-c2cc(-c3ccccc3O)c(C#N)c(N)n2)c1 ? inactive

Per the records of this test, what outcome belongs to CCCCCCCCC(=O)Cl ? active

Per the records of this test, what outcome belongs to N=C(N)SCc1cc(Cl)cc(Cl)c1O ? inactive

Per the records of this test, what outcome belongs to O=C(N/C(=C\c1ccc(Cl)cc1)c1nc2ccccc2s1)c1ccccc1 ? active

Per the records of this test, what outcome belongs to CN1C(=O)C23SSC1(C)C(=O)N2c1ccccc1C3(C)C (stereo not drawn) ? active

Per the records of this test, what outcome belongs to OCC(O)Cc1c(Cl)c(Cl)c(Oc2c(Cl)c(Cl)c(CC(O)CO)c(Cl)c2Cl)c(Cl)c1Cl (stereo not drawn) ? inactive

Per the records of this test, what outcome belongs to CC(C)(C)c1cc(C(O)(C(F)(F)F)C(F)(F)F)c(Cl)c(C(O)(C(F)(F)F)C(F)(F)F)c1 ? active
